Readings of GI50 for the listed molecules
Test system: KM12
Assay: NCI tumour cell line growth inhibition, 48 h
Calls of active or inactive are those of the source. Cut-off read from the data, not from the text of the source: active = GI50 up to about 1.1 µM and inactive = higher.

[
  {
    "Molecule": "O=C1/C(=C\\c2ccc(-c3ccc(Cl)cc3Cl)o2)SC2NC(COc3ccc(Cl)cc3)=NN12 (stereo not given)",
    "Experimental Endpoint": "GI50",
    "Value Measured": "55.5 µM (inactive)"
  },
  {
    "Molecule": "Cc1cccc2c1N(C(=O)/C=C\\C(=O)O)C(c1c(C)[nH]c3ccccc13)C2 (stereo not given)",
    "Experimental Endpoint": "GI50",
    "Value Measured": "33.5 µM (inactive)"
  },
  {
    "Molecule": "Cc1ccc(C(=O)C#Cc2cn(C3CC(O)C(CO)O3)c(=O)[nH]c2=O)cc1 (stereo not given)",
    "Experimental Endpoint": "GI50",
    "Value Measured": "> 100 µM (inactive)"
  },
  {
    "Molecule": "O=[N+]([O-])c1ccc2[nH]ncc2c1Cl",
    "Experimental Endpoint": "GI50",
    "Value Measured": "25.3 µM (inactive)"
  },
  {
    "Molecule": "O=C(Nc1cccc([N+](=O)[O-])c1)C(=O)C(C(=O)c1ccccc1F)C1OC(=O)C2C=CC=CC21 (stereo not given)",
    "Experimental Endpoint": "GI50",
    "Value Measured": "27.3 µM (inactive)"
  }
]

(Q) Which GI50 is listed for `CN(C)CCCNc1ccnc2cc([N+](=O)[O-])ccc12` ?
(A) 10.2 µM (inactive)

(Q) Do the same for CC(c1ccccc1)N1CCN(C(C)c2ccccc2)CC1 (stereo not given) please
(A) > 100 µM (inactive)

(Q) Do the same for `CNN1C(=O)c2c(C)c(C)c(C#N)c(N)c2C1=O` please
(A) > 100 µM (inactive)

(Q) Do the same for `Cc1ccc(S(=O)(=O)Nc2nc3ccccc3c(=O)n2C2CCCCC2)cc1` please
(A) > 100 µM (inactive)

(Q) Do the same for O=C1C=CC2(O)OCC3C=C4O[C@@H]5OC6(CCCCC6)O[C@@H]5C4[C@@H]2[C@@H]13 (stereo not given in full) please
(A) 38.5 µM (inactive)

* * *

System: NCI/ADR-RES
Test: NCI tumour cell line growth inhibition, 48 h
The source made the active and inactive calls. No stated cut-off is given here; in the data, active = GI50 up to about 1.1 µM and inactive = higher.
Experimental Endpoint: GI50

The following molecules have reported results that may help.
[
  {
    "Molecule": "S=c1sc2c(s1)SC(c1ccccc1)CS2 (stereo unspecified)",
    "Experimental Endpoint": "GI50",
    "Value Measured": "> 52 µM (inactive)"
  },
  {
    "Molecule": "Nc1ccc2cc3ccc(N)cc3nc2c1",
    "Experimental Endpoint": "GI50",
    "Value Measured": "1.03 µM (active)"
  },
  {
    "Molecule": "CCCCOc1ccc(S(=O)(=O)N/C(=N\\O)Nc2ccc(Cl)cc2)cc1",
    "Experimental Endpoint": "GI50",
    "Value Measured": "15.8 µM (inactive)"
  }
]

(Q) Which GI50 is listed for CC12CCCC3(CC(=O)C(C)(C)C3C(=O)C1)C2 (stereo unspecified) ?
(A) > 100 µM (inactive)

(Q) Do the same for N=C(N)c1ccc(OCCCCCOc2ccc(C(=N)N)cc2)cc1 [PENTAMIDINE] please
(A) 71.6 µM (inactive)

(Q) Do the same for Cc1ccc(C(=O)C#Cc2cn(C3CC(O)C(CO)O3)c(=O)[nH]c2=O)cc1 (stereo unspecified) please
(A) > 100 µM (inactive)

(Q) Do the same for `O=C1Nc2ccccc2N/C1=C\C(=O)C(F)F` please
(A) > 100 µM (inactive)

(Q) Do the same for O=C(NCP(=O)(O)O)c1cccnc1 [(NICOTINAMIDOMETHYL)PHOSPHONIC ACID] please
(A) > 100 µM (inactive)

(Q) Do the same for `N/C(=N\O)N/N=C\c1ccc(O)c(O)c1O` please
(A) 19.5 µM (inactive)

(Q) Do the same for CNC(=O)OC(C)CN1c2ccccc2Sc2ccc(Cl)cc21 (stereo unspecified) please
(A) > 10 µM (inactive)

(Q) Do the same for `CC[C@@]1(OC(=O)CN(C)C)C(=O)OCc2c1cc1n(c2=O)Cc2cc3ccccc3nc2-1` please
(A) 0.0421 µM (active)

(Q) Do the same for `COc1ccc(NC2=NCCO2)c2c1CCCC2` please
(A) 27.6 µM (inactive)

(Q) Do the same for `Nc1nc(N)c(CCCCc2ccc([N+](=O)[O-])cc2)c(N)n1` please
(A) > 100 µM (inactive)

(Q) Do the same for O=C1c2cc3c(cc2CC1Cc1ccc2c(c1)CCC2)CCC3 (stereo unspecified) please
(A) 65.3 µM (inactive)

(Q) Do the same for COc1cc(C2c3cc4c(cc3[C@@H](Nc3ccc(Oc5ccccc5)cc3)C3COC(=O)[C@H]23)OCO4)cc(OC)c1O (stereo partly specified) please
(A) 9.02 µM (inactive)

* * *

Listed here: compounds with reported GI50 for HCT-15.

[
  {
    "Compound": "CCOc1cc2c(cc1O)/C(=N\\O)C[C@@H]1[C@@H]2CC[C@]2(C)[C@@H](O)CC[C@@H]12",
    "Target Of Assay": "HCT-15",
    "Value Measured": "< 0.0199 µM"
  },
  {
    "Compound": "N/C(=N\\O)N/N=C\\c1ccc(O)c(O)c1O",
    "Target Of Assay": "HCT-15",
    "Value Measured": "19.2 µM"
  },
  {
    "Compound": "COCCn1cnc2c(Cl)nc(Nc3ccccc3)nc21",
    "Target Of Assay": "HCT-15",
    "Value Measured": "22.9 µM"
  },
  {
    "Compound": "N#C/C(=C1\\N=C(c2ccccc2O)Oc2ccccc21)c1ccc([N+](=O)[O-])cc1",
    "Target Of Assay": "HCT-15",
    "Value Measured": "> 100 µM"
  }
]

(Q) Which GI50 is listed for `C=CCc1c(C)nc(C)nc1N/N=C/C=C/c1ccccc1` ?
(A) 35.4 µM

(Q) Do the same for `CNS(=O)(=O)NNS(=O)(=O)c1ccc(Br)cc1` please
(A) > 100 µM

* * *

System: SN12C
Test: NCI tumour cell line growth inhibition, 48 h
The source made the active and inactive calls. No stated cut-off is given here; in the data, active = GI50 up to about 1.1 µM and inactive = higher.
Experimental Endpoint: GI50

The following compounds have reported results that may help.
[
  {
    "Compound": "COc1cc(C2c3cc4c(cc3[C@@H](Nc3ccc(Oc5ccccc5)cc3)C3COC(=O)[C@H]23)OCO4)cc(OC)c1O (some centres not stated)",
    "GI50": "2.7 µM (inactive)"
  },
  {
    "Compound": "Cc1c2c(Cl)c3c(c(Cl)c2c(C)c2c(Cl)c4c(c(Cl)c12)C(c1ccccc1)(c1ccccc1)C4(c1ccccc1)c1ccccc1)C(c1ccccc1)(c1ccccc1)C3(c1ccccc1)c1ccccc1",
    "GI50": "> 100 µM (inactive)"
  },
  {
    "Compound": "COc1ccccc1Nc1nc2c([nH]1)c(=O)n(C)c(=O)n2C",
    "GI50": "> 10 µM (inactive)"
  }
]

(Q) Which GI50 is listed for O=CC12C3CCC1C2C(=O)C3 (configuration not stated) ?
(A) > 100 µM (inactive)

* * *

Tested on: OVCAR-5
Test: NCI tumour cell line growth inhibition, 48 h
Activity calls are given as the source filed them. Rule as the data show it: active = GI50 up to about 1.1 µM and inactive = higher.
Experimental Endpoint: GI50

The following compounds have reported results that may help.
[
  {
    "Compound": "CC1(C)CC[C@]2(C(=O)O)CC[C@]3(C)C(=CC[C@@H]4[C@@]5(C)CC[C@H](OC6OC(CO)C(O)C(O)C6O)C(C)(C)[C@@H]5CC[C@]43C)[C@@H]2C1 (some centres undefined)",
    "Target Of Assay": "OVCAR-5",
    "GI50": "1.9 µM (inactive)"
  },
  {
    "Compound": "CCSc1n/c(=C\\c2ccc(N(C)C)cc2)c2nnnn12",
    "Target Of Assay": "OVCAR-5",
    "GI50": "> 100 µM (inactive)"
  },
  {
    "Compound": "CC(=O)OCOC(=O)CN(CC(=O)OCOC(C)=O)Cc1cc2c(cc1OC(C)=O)Oc1cc(OC(C)=O)c(CN(CC(=O)OCOC(C)=O)CC(=O)OCOC(C)=O)cc1C21OC(=O)c2ccccc21",
    "Target Of Assay": "OVCAR-5",
    "GI50": "2.94 µM (inactive)"
  }
]

(Q) Which GI50 is listed for `COc1ccc(-c2cc(C3CC3)nc(SCC(=O)O)c2C#N)cc1` ?
(A) > 100 µM (inactive)

(Q) Do the same for `COc1cc(OC)c(-c2oc3ccccc3c(=O)c2O)c(OC)c1` please
(A) > 100 µM (inactive)

(Q) Do the same for `COc1ccc(-c2cc(-c3ccccc3)nc3c2CC(=O)Nc2ccccc2-3)cc1OC` please
(A) > 100 µM (inactive)

(Q) Do the same for `O=[N+]([O-])C(/C(Cl)=C(/Cl)N1CCCCC1)=C1\NCCO1` please
(A) > 100 µM (inactive)

(Q) Do the same for CC1CCSC(N(C(=O)N(C)c2ccccc2)c2ccccc2)=N1 (centres undefined) please
(A) > 100 µM (inactive)

(Q) Do the same for C=CCCC(On1c(-c2ccc(Cl)cc2)csc1=S)c1ccccc1 (centres undefined) please
(A) > 100 µM (inactive)

(Q) Do the same for CCOc1ccc(/N=N/C2C(=O)N(C(=O)CC(=O)Nc3ccccc3)N=C2C)cc1 (centres undefined) please
(A) > 100 µM (inactive)

(Q) Do the same for `COc1ccc(/C=C/C(=O)c2cc(OC)cc(OC)c2)cc1` please
(A) 5.6 µM (inactive)

(Q) Do the same for `O=C(Nc1ccc(Cl)cc1)c1cc2cc(/N=N/c3ccccc3Cl)ccc2oc1=O` please
(A) 44.6 µM (inactive)

Values compiled from ChEMBL document CHEMBL1201862.
